assay: in vitro; set-up: Viability of infected HeLa host cells, resazurin conversion, bulk resorufin fluorescence relative to DMSO; settings: human, hela cells; bulk resorufin, mean of 2
MEASUREMENT_TYPE: viability at 28.5 h, 1 µM (%)
Provide only the numeric value, understood in %.

Recorded results for 5 compounds are shown here.
COMPOUND	UNIT_INFO	DATA_VALUE
COc1cccc(CNc2ccc(N3CCOCC3)cc2)c1OCc1ccccc1F [CBK074406]	%	86.4
CCc1nnc(NS(=O)(=O)c2ccc(NC(=S)Nc3ccc(F)cc3)cc2)s1 [CBK050037]	%	98.2
O=C(Nc1ccccc1N1CCCNCC1)c1ccc2ccccc2c1 [CBK038927T]	%	115
CC(=O)NC[C@H]1CN(c2ccc3c(c2)CCSC3)C(=O)O1 [CBK018505]	%	95.5
Cc1ccc2[nH]c3c(c2c1)CCOC31CCN(Cc2ccccc2-c2ccccc2)CC1 [CBK039915]	%	99.1

(Q) # query: viability at 28.5 h, 1 µM of entry CC(C)(C)c1cc(C(=O)Nc2ccncc2)n(Cc2ccc(Cl)cc2Cl)n1 [CBK107284]
(A) 94.9

(Q) What do we get for Oc1ccccc1Nc1nc(NC2CCCC2)c2ccccc2n1 [CBK268402C] ?
(A) 90.7

* * *

assay: in vitro; conditions: human, hela cells, % viability
MEASUREMENT_TYPE: viability at 28.5 h, 10 µM
Remember to put the unit after the number in your answer.

COMPOUND	DATA_VALUE
COc1ccccc1Cc1noc(COc2cccc(C)c2C)n1	99.9%
COc1cc(N)c(Cl)cc1C(=O)OCc1cc2ccc(C)cc2nc1Cl	89.7%

(Q) # query: viability at 28.5 h, 10 µM of entry COCCN1C(=O)C2(CC(=O)N(C)C2=O)c2ccccc21 (centres unmarked)
(A) 102%

(Q) What do we get for `O=S(=O)(c1ccccc1)n1c(CO)cc2c(C(F)(F)F)cc(CN3CCNCC3)cc21` ?
(A) 97.7%

(Q) What do we get for `CN(Cc1cnn(C)c1)c1nccc(N2CCN[C@H]3CS(=O)(=O)C[C@H]32)n1` ?
(A) 100%

* * *

test: in vitro; conditions: human, hela cells, % viability
MEASUREMENT_TYPE: viability at 28.5 h, 10 µM (%)
Provide only the numeric value, understood in %.

Recorded results for 3 molecules are shown here.
MOLECULE	viability at 28.5 h, 10 µM [%]
Clc1ccc(COc2cccc3c2CCCC3)cn1	102
Cc1cc(OCCC#N)cc(C)c1Cl	98.2
O=C(N[C@H]1CCN2C(=O)c3cc(-c4cccs4)ccc3NC(=O)[C@@H]2C1)c1cnccn1	106

(Q) # query: viability at 28.5 h, 10 µM of entry Cc1nccn1CCCn1cncc1-c1ccc2c(c1)CCC(C)N2C (centres unmarked)
(A) 91

(Q) What do we get for Cc1cc(C)c(-n2cccn2)c(CN2CCC(CO)C2)c1 (centres unmarked) ?
(A) 87.1

* * *

assay: in vitro; details: human, hela cells, % viability
This listing pairs molecules with measured viability at 28.5 h, 10 µM.
Provide only the numeric value, understood in %.

Recorded results for 6 molecules are shown here.
MOLECULE	DATA_VALUE
CN(C)c1cccc(Nc2ncc(-c3ccc(N4CCOCC4)cc3)n3ccnc23)c1 [CBK091222]	94.5
CC(=O)N1CCC(c2nc(Cc3cccs3)no2)C1 (stereo not drawn) [CBK282998]	108
Cn1c(=O)c2c(nc(CN3CCOCC3)n2Cc2c(F)cccc2Cl)n(C)c1=O [CBK269224]	98.9
CCN(CC)CCN1C(=O)c2oc3cc(C)c(C)cc3c(=O)c2C1c1cc(Br)c(O)c(OC)c1 (stereo not drawn) [CBK266846]	105
O=C(C1CCCC1)N1CCC(n2nc(-c3cccs3)oc2=O)CC1 [CBK282424]	87.5
COc1cc(NC(=O)COc2ccc3ccccc3c2)c(C(=O)O)cc1OC [CBK264181]	103

(Q) # query: viability at 28.5 h, 10 µM of entry CC(NC(=O)c1cn(-c2ccccc2)nc1-c1cccnc1)c1ccccn1 (stereo not drawn) [CBK295660]
(A) 105

(Q) What do we get for CC(C)C(=O)Nc1cc2cccnc2nc1-c1cccc(C(F)(F)F)c1 [CBK073657] ?
(A) 93.7

(Q) What do we get for CC(=O)N1CC[C@@H](CC(=O)O)[C@@H](CC2=NCCc3ccc(C(C)(C)C)cc32)C1 [CBK289165] ?
(A) 84.4

* * *

This listing pairs molecules with measured viability at 28.5 h, 10 µM.
experiment: in vitro; conditions: human, hela cells, % viability, bulk resorufin, single well
Remember to put the unit after the number in your answer.

Recorded results for 10 molecules are shown here.
MOLECULE	viability at 28.5 h, 10 µM
O=C1CCCc2c1c1cccc(C(=O)O)c1n2Cc1ccccc1	95.6%
O=C1NC(=O)N(c2ccc(F)cc2)C(=O)/C1=C/c1ccccc1OCc1ccc([N+](=O)[O-])cc1	93.5%
O=C1NC(=O)C(CCc2ccccn2)(CCc2ccccn2)C(=O)N1c1ccc(F)cc1	93%
CCOC(=O)N1CCC2(CC1)OCc1ccc(C#N)cc1O2	97.2%
CC(C)=C1C2CCC1C(C(=O)N1CCC3(CC1)OCCO3)C2C(=O)O (centres unmarked)	92.7%
CN1CCN(c2ccc(C=C3C(=O)NC(=S)NC3=O)o2)CC1	98.6%
CCCC(=O)C1(c2ccccc2)CCN(C(=O)Nc2cccc(SC)c2)CC1	94.6%
COc1cc(C(=O)Nc2ccc3c(c2)COC2(CCNCC2)O3)cc(OC)c1OC [CBK091531T]	92.3%
C1=C(c2ccccc2)CCNC1 [CBK012268C]	104%
O=C(Nc1cccc(-c2ccc3c(c2)COC2(CCNCC2)O3)c1)c1cnccn1	90.5%

(Q) # query: viability at 28.5 h, 10 µM of entry `CCOC(=O)C1(c2ccccc2)CCN(C(=O)COc2ccccc2OC)CC1`
(A) 87.1%

(Q) What do we get for `Cc1ccc2[nH]cc(CCN)c2c1` ?
(A) 103%

(Q) What do we get for CSc1nnc(C(N)Cc2c[nH]c3ccccc23)o1 (centres unmarked) [CBK269950C] ?
(A) 89.8%

(Q) What do we get for `CNCCc1csc2ccc(C)cc12` ?
(A) 91.6%

(Q) What do we get for `Cc1ccc(OCCn2cc(/C=C3/C(=O)NC(=O)N(Cc4ccco4)C3=O)c3ccccc32)cc1` ?
(A) 92.9%

(Q) What do we get for `O=[N+]([O-])c1ccccc1CN1CCN(c2ccccc2Cl)CC1` ?
(A) 92%

(Q) What do we get for `Cc1cccc(N2C(=O)NC(=O)C(CCc3ccncc3)(CCc3ccncc3)C2=O)c1C` ?
(A) 93.9%

(Q) What do we get for `Cc1nocc1C(=O)N1CCC2(CC1)OCc1ccccc1O2` ?
(A) 105%

(Q) What do we get for `CSc1ccc(C(=O)C(C)(C)N2CCOCC2)cc1` ?
(A) 107%

(Q) What do we get for `Cc1ccc(-c2ccc3c(c2)COC2(CCNCC2)O3)c(C)c1` ?
(A) 89.7%

* * *

This listing pairs compounds with measured viability at 28.5 h, 10 µM.
experiment: in vitro; details: human, hela cells, % viability
Provide only the numeric value, understood in %.

COMPOUND	UNIT_INFO	viability at 28.5 h, 10 µM
COc1cc(F)ccc1-c1ccc(NS(C)(=O)=O)c2ccccc12	%	97.9
CCNC(=O)C1(Cc2ccc(-c3cccs3)cc2)CCN(C(=O)Cc2ccccc2)CC1	%	115
O=C(CSc1nnc(-c2ccncc2)n1-c1ccccc1)N1CCN(Cc2ccccc2)CC1	%	105
Cc1ccc(CNS(=O)(=O)N(C)C)cc1	%	80.9

(Q) # query: viability at 28.5 h, 10 µM of entry Cn1cnc2c1c(=O)n(CCCN1C(=O)C3(CC(=O)N(Cc4ccccc4)C3=O)c3cc(F)ccc31)c(=O)n2C (stereo not shown)
(A) 76

(Q) What do we get for Fc1ccc(Oc2nccnc2N2CCN(Cc3ccccc3F)CC2)cc1 [CBK083009T] ?
(A) 91.8

(Q) What do we get for `Nc1ccc(-c2cc(F)cc(F)c2)c2ccccc12` ?
(A) 93.2

* * *

This listing pairs molecules with measured viability at 28.5 h, 10 µM.
assay: in vitro; settings: human, hela cells, % viability
Provide only the numeric value, understood in %.

MOLECULE	viability at 28.5 h, 10 µM [%]
Cc1cccc(-c2n[nH]c(=S)n2CC(=O)NCc2cn(-c3ccccc3)nc2-c2ccccc2)c1 [CBK297941]	88.1
COc1cc2c(c(OC)c1OC)CC(=O)NC21CCN(C(=O)NC(C)(C)C)CC1 [CBK047301]	94.2
Cc1ccc(-c2cc3cccnc3n2CCC(=O)NC2CC2)cn1 [CBK284964]	97.4
Cc1nc(C)n(CCc2nc3ccccc3[nH]2)n1 [CBK269364]	105
NNC(=O)C(NC(=O)c1ccccc1)c1n[nH]c(=O)c2ccccc12 (stereo not shown) [CBK261144]	92.9

(Q) # query: viability at 28.5 h, 10 µM of entry Nc1ncnc(NCCc2ccc(Cl)cc2)c1[N+](=O)[O-] [CBK267351]
(A) 88.3

(Q) What do we get for CNc1ccc(OC(=O)c2ccco2)cc1 [CBK010779] ?
(A) 88.1

(Q) What do we get for Cc1ccc(F)c(S(=O)(=O)NC(C)Cc2ccccn2)c1 (stereo not shown) [CBK281427] ?
(A) 90.5

(Q) What do we get for COc1ccc(CNC(=O)C2CCCN(c3nc4c(-c5ccccc5)csc4c(=O)[nH]3)C2)cc1 (stereo not shown) [CBK215464] ?
(A) 95.2

(Q) What do we get for Cn1cc(-c2cncn2CCCOc2ccc(Cl)cc2)cn1 [CBK281784] ?
(A) 95.2

(Q) What do we get for CC(C)C(=O)Nc1ccc2c(-c3ccc4c(c3)OCCCO4)ccnc2n1 [CBK073675] ?
(A) 96.7

(Q) What do we get for CSc1nc(-c2ccccc2)nc(N)c1C(C)=O [CBK270762] ?
(A) 90.1

(Q) What do we get for CCN(CC)C(=O)c1cccc(NS(=O)(=O)c2cccc(C(=O)O)c2)c1 [CBK296943] ?
(A) 97.6

(Q) What do we get for C=CCNC(=O)C[C@@H]1CCN(C(=O)c2cccnc2)C[C@@H]1CC [CBK289142] ?
(A) 92.3

(Q) What do we get for CCCOc1ccc(C(CC(=O)O)NS(=O)(=O)c2ccc(F)cc2)cc1 (stereo not shown) [CBK287139] ?
(A) 102

(Q) What do we get for Cc1ccc(S(=O)(=O)Nc2ccc(N3CCCNCC3)cc2N(C)S(C)(=O)=O)cc1 [CBK000017C] ?
(A) 113
